Value source: patent US10017524B2

test: Oral absorbability and intracerebral transferability (plasma and brain tissue concentration); format: in vivo; details: male, brain tissue / plasma, ICR mouse, 100 mg/kg, read-out: Brain tissue/blood ratio (B/P: mL/g)
Experimental readout: Kp

- CCN1/C(=C/C(C)=O)Sc2ccc3c(c21)CCO3: ~0.9

Lookup: // Kp lookup, key: CCN1/C(=C/C(C)=O)Sc2ccc3occc3c21
Found: ~1

* * *

assay: Intracerebral transferability after caudal vein administration; assay type: in vivo; settings: male, Wistar, cerebrospinal fluid, intravenous, rat, 2 mg/head, 7 minutes after administration
Experimental readout: concentration at 7 min (nM)
Just the number in nM, nothing appended.

Lookup: GET /values?readout=concentration at 7 min&item= CCN1/C(=C/C(C)=O)Sc2ccc3c(c21)CCO3
Found: 1880
